- CONDITION_DESCRIPTION: buffer; pH 7.4; 200.0 µM
Please mark label 1 if the recorded solubility kinetic is equal to or greater than 2 µg/mL, and label 0 if it falls below.

{"COMPOUND": "O=c1c2ccccc2nc2oc3ccccc3n12", "LABEL_CLASS": "label 0"}

Qu. Please check the record `Cc1ccc2[nH]c3c(c2c1)SC(C)(C)CC3=O` and state if its solubility kinetic is at or above 2 µg/mL.
Ans. label 0

Qu. # check: solubility kinetic of `O=C(Nc1ccncc1)c1ccc(N2CCCC2=O)cc1` is greater than or equal to 2 µg/mL
Ans. label 1

Qu. Tell me whether solubility kinetic is at least 2 µg/mL here: `COC(=O)c1ccc2nc(-c3ccc4c(c3)OCO4)cn2c1`
Ans. label 0

Qu. Dear colleague, could you confirm whether O=C(O)CN1C(=O)NC2(CCOc3ccccc32)C1=O (configuration not stated) has solubility kinetic at or above 2 µg/mL?
Ans. label 1

Qu. Please check the record `Cc1ccc(S(=O)(=O)NCC2(c3ccccc3)CCOCC2)cc1` and state if its solubility kinetic is at or above 2 µg/mL.
Ans. label 0

Qu. Can `OCCc1c[nH]c2ccc(OCc3ccccc3)cc12` be said to have solubility kinetic at or above 2 µg/mL?
Ans. label 1

Qu. Entry `Cc1cccc(/C(N)=N/OC(=O)c2ccoc2C)c1` : is its solubility kinetic no less than 2 µg/mL?
Ans. label 1

---

- CONDITION_DESCRIPTION: buffer; pH 7.4; 200.0 µM
QUANTITY_KIND: solubility kinetic (µg/mL)
Note: unit µg/mL is implicit; provide only the numeric part.

Example cases with answers are listed next.
{"MOLECULE": "COc1ccc(Cl)cc1C(=O)NCCCSc1ccccc1", "VALUE_UNITS": "µg/mL", "solubility kinetic": 7.8}
{"MOLECULE": "Nc1nc(-c2cccs2)c(-c2cccs2)s1", "VALUE_UNITS": "µg/mL", "solubility kinetic": 5.8}
{"MOLECULE": "COC(=O)c1cc2ccccc2n1Cc1ccc(Cl)nc1", "VALUE_UNITS": "µg/mL", "solubility kinetic": 1.5}
{"MOLECULE": "COCCNC(=O)C(NC(=O)C1CCCCC1)C12CC3CC(CC(C3)C1)C2 (centres undefined)", "VALUE_UNITS": "µg/mL", "solubility kinetic": 5.5}
{"MOLECULE": "Cc1nc(-c2cccc(NC(=O)Cc3ccccc3)c2)cs1", "VALUE_UNITS": "µg/mL", "solubility kinetic": 30.1}
{"MOLECULE": "Cc1ccc(S(=O)(=O)N2CCOCC2)cc1NC(=O)Nc1ccc([N+](=O)[O-])cc1", "VALUE_UNITS": "µg/mL", "solubility kinetic": 1.8}
{"MOLECULE": "COc1cccc(NC(=O)C2CCCO2)c1 (centres undefined)", "VALUE_UNITS": "µg/mL", "solubility kinetic": 30.5}
{"MOLECULE": "N#Cc1ccc(OS(=O)(=O)c2ccc(-c3ccon3)s2)cc1", "VALUE_UNITS": "µg/mL", "solubility kinetic": 11.8}
{"MOLECULE": "CCC(CC)NC(=O)COc1ccc(OC)cc1C=O", "VALUE_UNITS": "µg/mL", "solubility kinetic": 30.7}
{"MOLECULE": "CC(C)(C)N1C(=O)c2ccc(C(=O)Nc3cc(C(=O)O)cc(C(=O)O)c3)cc2C1=O", "VALUE_UNITS": "µg/mL", "solubility kinetic": 51.5}

Measured solubility kinetic of Cc1cc(C(=O)NCC(c2ccco2)N(C)C)ccc1[N+](=O)[O-] (centres undefined) : 39.7

molecule Cc1cc(C)c2c(CC(=O)NC3CCS(=O)(=O)C3)coc2c1 (centres undefined) , solubility kinetic observed: 48.2

Reported solubility kinetic for CC(=O)SC1CC(=O)N(c2ccc(C(C)(C)C)cc2)C1=O (centres undefined) was 5.7
